- Tested on: CCRIS mutagenicity, Ames/micronucleus/aberration tests
- assay protocol: CCRIS mutagenicity studies
- run parameters: Test System: UDS HUMAN HEPATOCYTES; Strain/Indicator: THY INCORP; Metabolic Activation: NONE; Method: AUTORADIOGRAPHY
The source made the active and inactive calls. No rule for the calls is given here.
Outcome field: choose from yes (1) (active), no (0) (inactive)

Could you check what this test reported for ClC1C(Cl)C(Cl)C(Cl)C(Cl)C1Cl (stereo not given) ?
no (0)

Could you check what this test reported for CC(C)(C)N(CC(O)COc1cccc2c1CC(O)C(O)C2)N=O (stereo not given) ?
yes (1)

Could you check what this test reported for C=CCOc1ccccc1OCC(O)CNC(C)C (stereo not given) ?
no (0)

Could you check what this test reported for Cc1cc2ncccc2c2nc(N)n(C)c12 ?
yes (1)

Could you check what this test reported for CCCCC=O ?
no (0)
